system: Microsporum canis; assay: Minimum inhibitory concentration towards Microsporum canis; type: functional
Endpoint Label: MIC

Example entries and their recorded answers appear below.
O=C1C(=O)c2ccccc2C(O)=C1Sc1ccccc1 :: 25 µg/mL
O=C1C=C(Sc2ccccc2)C(=O)c2ccccc21 :: < 0.98 µg/mL
O=C1C=CC(=O)c2c1c(O)c1sc3ccccc3c(=O)c1c2O :: > 50 µg/mL
O=C(O)CCCSC1=CC(=O)c2c(Cl)ccc(O)c2C1=O :: > 50 µg/mL
O=C1C(Sc2cccc3ccccc23)=C(Sc2cccc3ccccc23)C(=O)c2c(Cl)ccc(O)c21 :: > 50 µg/mL

Record summary for O=C1C=CC(=O)C(Sc2ccccc2C(=O)O)=C1 : reported MIC = > 50 µg/mL
